target: Xyl43A; construct: intracellular enzyme; test: inhibition of pNPX hydrolysis, Dixon plot; details: pNPX substrate, McIlvaine buffer pH 6.8, room temperature, 10 min; mode not stated
pKi: −log10 of the molar value.
metric_name: pKi

INSERT INTO results (compound, numeric_readout) VALUES
  ('OC1OC[C@@H](O)[C@H](O)[C@H]1O (stereo partly drawn) [D-xylose]', 1.36);

Taken from paper PMC5904165.
